Exercise: for every item that follows, state its recorded pEC50.
# System: HMPV clinical isolate TN/1501/A1
# protocol summary: HMPV antiviral assay Method-B (clinical isolate TN/1501/A1 in LLC-MK2 cells, ATP-Lite readout)
# Format: cell-based, Human metapneumovirus (HMPV)
# reported conditions: human metapneumovirus, LLC-MK2, 144 h, hMPV WT1501 (clinical isolate TN/1501/A1), 6 days
pEC50: −log10 of the molar value.

Problem: Endpoint output: pEC50 of "COc1cc(C(=O)NC[C@](O)(c2cc3c(c(-c4ccc5c(c4)OC(F)(F)O5)n2)OC[C@]3(C)C(N)=O)C(F)(F)F)cc2cc(C3CC3)nnc12" . Value?
Solution: > 6.30

Problem: Let us now turn to "COc1cc(C(=O)NC[C@](O)(c2cc3c(c(-c4cc(F)c(F)c(Cl)c4)n2)OC[C@]3(C)C(N)=O)C(F)(F)F)cc2cn(C3CC3)nc12"
Solution: > 6.30

Problem: Queued: "COc1cc(C(=O)NC[C@](O)(c2cc3c(c(-c4ccc5c(c4)OC(F)(F)O5)n2)OC[C@@]3(C(N)=O)C(F)F)C2CC2)cc2cc(C3CC3)nn12"
Solution: > 6.30

Problem: What about this compound? "COc1cc(C(=O)NC[C@](O)(c2cc3c(c(-c4c(F)ccc(Cl)c4F)n2)OC[C@]3(C)C(N)=O)C(F)(F)F)cc2cn(C3CC3)nc12"
Solution: > 6.30

Problem: And for "COc1cc(C(=O)NC[C@](O)(c2cc3c(c(-c4ccc5c(c4)OC(F)(F)O5)n2)OC[C@]3(C)C(N)=O)C(F)(F)F)cc2cn(C3CC3)nc12" ?
Solution: > 6.30

Problem: Similarly, "COc1cc(C(=O)NC[C@](O)(c2cc3c(c(-c4ccc(C(F)(F)F)s4)n2)OC[C@]3(C)C(N)=O)C(F)(F)F)cc2cn(C3CC3)nc12" ?
Solution: > 6.30

Problem: // next record "Cc1cnc2c(OC(F)F)cc(C(=O)NC[C@](O)(c3cc4c(c(-c5cc(F)c(Cl)cc5F)n3)OC[C@]4(C)C(N)=O)C3CC3)cc2c1"
Solution: > 6.30

Problem: Likewise for "Cc1cnc2c(OC(F)F)cc(C(=O)NC[C@](O)(c3cc4c(c(-c5ccc(F)c(Cl)c5F)n3)OC[C@]4(C)C(N)=O)C3CC3)cc2c1" ?
Solution: > 6.30

Problem: Ok, now "COc1cc(C(=O)NC[C@](O)(c2cc3c(c(-c4cc(F)c(F)cc4F)n2)OC[C@]3(C)C(N)=O)C2CC2)cc2cn(C3CC3)nc12"
Solution: > 6.30

Problem: Okay, and "COc1cc(C(=O)NC[C@](O)(c2cc3c(c(-c4ccc(F)c(Cl)c4F)n2)OC[C@]3(C)C(N)=O)C2CC2)cc2cn(C3(F)CC3)nc12" ?
Solution: > 6.30

Problem: What do we get for "[2H]C([2H])([2H])[C@](O)(CNC(=O)c1cc(OC)c2nn(C3CC3)cc2c1)c1cc2c(c(-c3ccc(F)cc3)n1)OC[C@]2(C)C(N)=O" ?
Solution: < 6.30

Problem: COc1cc(C(=O)NCC(O)(c2cc3c(c(-c4cc(F)c(F)c(Cl)c4)n2)OC[C@]3(C)C(N)=O)C(F)(F)F)cc2cn(C3CC3)nc12 (some centres unmarked) , same question.
Solution: > 6.30

Problem: Request: "COc1cc(C(=O)NC[C@](O)(c2cc3c(c(-c4cc(Cl)ccc4F)n2)OC[C@]3(C)C(N)=O)C2(F)CC2)cc2cc(Cl)c(C)nc12"
Solution: > 6.30

Problem: Please give the result for "COc1cc(C(=O)NC[C@](O)(c2cc3c(c(-c4ccc(F)c(F)c4F)n2)OC[C@]3(C)C(N)=O)C2CC2)cc2cc(Cl)c(C)nc12" too.
Solution: > 6.30

Problem: And "COc1cc(C(=O)NC[C@](O)(c2cc3c(c(-c4ccc(Cl)c(F)c4F)n2)OC[C@]3(C)C(N)=O)C(F)(F)F)cc2cn(C3CC3)nc12" ?
Solution: > 6.30

Problem: One more compound: "COc1cc(C(=O)NC[C@](O)(c2cc3c(c(-c4ccc(F)c(Cl)c4)n2)OC[C@@]3(C(N)=O)C(F)F)C(F)(F)F)cc2sc(C)nc12"
Solution: > 6.30

Problem: // same read-out, input: "COc1cc(C(=O)NC[C@](O)(c2cc3c(c(-c4cc(F)c(F)c(Cl)c4)n2)OC[C@]3(C)C(N)=O)C(F)(F)F)cc2cn(C(F)F)nc12"
Solution: > 6.30

Problem: What about "COc1cc(C(=O)NC[C@](O)(c2cc3c(c(-c4cccc(F)c4Cl)n2)OC[C@]3(C)C(N)=O)C(F)(F)F)cc2cn(C3CC3)nc12" ?
Solution: > 6.30

Problem: Follow-up item: "COc1cc(C(=O)NC[C@](O)(c2cc3c(c(-c4ccc5c(c4)OC(F)(F)C(F)(F)O5)n2)OC[C@]3(C)C(N)=O)C(F)(F)F)cc2cn(C3CC3)nc12"
Solution: < 6.30

Problem: Also need "COc1cc(C(=O)NC[C@](O)(c2cc3c(c(-c4ccc(F)cc4)n2)OC[C@]3(C)C(N)=O)C(F)(F)F)cc2cc(Cl)c(Cl)nc12" , thanks.
Solution: < 6.30

Problem: And "COc1cc(C(=O)NC[C@](O)(c2cc3c(c(-c4ccc(F)c(F)c4Cl)n2)OC[C@]3(C)C(N)=O)C2CC2)cc2ccc(C)nc12" ?
Solution: < 6.30

Problem: Follow-up entry: "COc1cc(C(=O)NC[C@](O)(c2cc3c(c(-c4cc(F)c(F)cc4Cl)n2)OC[C@]3(C)C(N)=O)C2CC2)cc2cn(C(F)F)nc12"
Solution: > 6.30

Problem: Continue with "COc1cc(C(=O)NC[C@](O)(c2cc3c(c(-c4ccc(Cl)cc4)n2)OC[C@]3(C)C(N)=O)C(F)(F)F)cc2cn(C(F)F)nc12"
Solution: < 6.30

The origin of these recorded values is patent US12612412B2.
